molecular target: CpomOrco^Q417H (Cydia pomonella, UniProt H9A5M2, Q417H); test: Calcium imaging (Fluo-4) of HEK293A cells transfected with mutagenized CpomOrco^Q417H, VUAA1 stimulation; type: cell-based; details: EC50, HEK293A, after 30 min incubation at low pHe = 4.7
pEC50: −log10 of the molar value.

[
  {
    "query_smiles": "CCc1ccc(NC(=O)CSc2nnc(-c3cccnc3)n2CC)cc1",
    "pEC50": "~3.58"
  }
]

----------
Molecular target: CpomOrco^Q417H (Cydia pomonella, UniProt H9A5M2, Q417H)
Assay: Whole-cell voltage-clamp recordings of HEK293A cells transfected with CpomOrco^Q417H, VUAA1
Assay type: cell-based
Settings: EC50 (K1/2), intracellular pH = 8.0, extracellular pH 7.4, -50 mV
Method: HEK293 cells lines (HEK293A/HEK293T) were grown in HEK cell media [Dulbecco's modified Eagle's medium containing 10% fetal bovine serum (MP Biomedicals, Solon, OH, USA), 2.0 mM L-glutamine, and 100 µg/mL penicillin/streptomycin (Invitrogen)] at 37 °C and 5% CO2. To test transient expression of wild type CpomOrco and CpomOrco^Q417H variant for calcium imaging and patch-clamp recording, 35-mm petri dishes containing semi-confluent HEK293A cells were transiently transfected. […]
pEC50: −log10 of the molar value.
value_type: pEC50

[
  {
    "query_smiles": "CCc1ccc(NC(=O)CSc2nnc(-c3cccnc3)n2CC)cc1",
    "recorded_measurement": "~3.21"
  }
]

----------
molecular target: CpomOrco (Cydia pomonella, UniProt H9A5M2); experiment: Calcium imaging (Fluo-4) of HEK293A cells transfected with wild-type CpomOrco, VUAA1 stimulation; type: cell-based; details: HEK293A, CpomOrco, control pH conditions (pH 7.4), Hill fit
value_type: EC50

[
  {
    "query_smiles": "CCc1ccc(NC(=O)CSc2nnc(-c3cccnc3)n2CC)cc1",
    "value_type": "EC50",
    "recorded_measurement": "~157 µM"
  }
]

----------
Molecular target: CpomOrco^Q417H+OR3 (Cydia pomonella, UniProt H9A5M3)
Construct: variant as stated: Q417H
Sequence (H9A5M3 1-426): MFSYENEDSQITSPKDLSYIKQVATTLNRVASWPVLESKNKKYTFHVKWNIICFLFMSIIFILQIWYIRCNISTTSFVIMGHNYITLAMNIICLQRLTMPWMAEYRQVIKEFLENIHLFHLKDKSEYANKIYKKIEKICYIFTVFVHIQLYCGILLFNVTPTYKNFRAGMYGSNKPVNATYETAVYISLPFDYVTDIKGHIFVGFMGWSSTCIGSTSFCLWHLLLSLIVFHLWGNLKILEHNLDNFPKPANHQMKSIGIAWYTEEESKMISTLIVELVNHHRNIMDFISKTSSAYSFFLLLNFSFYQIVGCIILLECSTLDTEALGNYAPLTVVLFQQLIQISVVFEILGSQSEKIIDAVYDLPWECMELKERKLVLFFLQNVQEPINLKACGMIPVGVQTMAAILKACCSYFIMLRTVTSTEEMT
Sequence (H9A5M2 1-473 Q417H partner): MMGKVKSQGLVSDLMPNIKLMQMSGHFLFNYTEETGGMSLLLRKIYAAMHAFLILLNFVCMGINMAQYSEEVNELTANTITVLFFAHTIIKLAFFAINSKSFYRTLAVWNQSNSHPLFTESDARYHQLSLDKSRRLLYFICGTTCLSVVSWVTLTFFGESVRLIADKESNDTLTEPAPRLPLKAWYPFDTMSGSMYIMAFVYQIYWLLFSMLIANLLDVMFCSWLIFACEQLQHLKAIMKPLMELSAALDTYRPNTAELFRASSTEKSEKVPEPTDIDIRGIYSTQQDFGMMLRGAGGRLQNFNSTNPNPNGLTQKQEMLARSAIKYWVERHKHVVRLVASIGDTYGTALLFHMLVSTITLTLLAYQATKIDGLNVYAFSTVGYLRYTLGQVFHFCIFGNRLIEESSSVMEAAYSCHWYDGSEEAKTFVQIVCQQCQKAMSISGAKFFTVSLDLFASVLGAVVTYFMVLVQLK
Assay: Calcium imaging of HEK293T cells co-expressing CpomOrco^Q417H and CpomOR3, pear ester stimulation
Details: Hill fit
value_type: EC50

[
  {
    "compound": "CCCCC/C=C\\C=C\\C(=O)OCC [pear ester, ethyl (E,Z)-2,4 decadienoate]",
    "recorded_measurement": "~733 µM"
  }
]

----------
biological target: CpomOrco+OR3 (Cydia pomonella, UniProt H9A5M3); assay: Calcium imaging of HEK293T cells co-expressing CpomOrco and CpomOR3, pear ester stimulation; conditions: Hill fit
value_type: EC50

[
  {
    "compound": "CCCCC/C=C\\C=C\\C(=O)OCC [pear ester, ethyl (E,Z)-2,4 decadienoate]",
    "assayed_system": "CpomOrco+OR3 (Cydia pomonella, UniProt H9A5M3)",
    "recorded_measurement": "~210 µM"
  }
]

----------
target: CpomOrco (Cydia pomonella, UniProt H9A5M2); assay: Whole-cell voltage-clamp recordings of HEK293A cells transfected with CpomOrco, VUAA1; format: cell-based; settings: EC50 (K1/2), intracellular pH = 5.5, extracellular pH 7.4, -50 mV
pEC50: −log10 of the molar value.
value_type: pEC50

[
  {
    "query_smiles": "CCc1ccc(NC(=O)CSc2nnc(-c3cccnc3)n2CC)cc1",
    "recorded_measurement": "~3.25"
  }
]

Data origin, for the record: paper PMC7887336
